The origin of these recorded values is patent US10519446B2.

Field: Max % KD, EXPERIMENT 2. Provide a value for each of the substances that follow.
# Tested on: HBV
# assay.explanation: Efficacy of HBV RNAi agents in HepG2.2.15 cells in vitro (sAg KD)
# Format: cell-based, Hepatitis B Virus
# experimental.parameters: Experiment 2; percent knockdown; HepG2.2.15 cells
# Method: Table 9. Efficacy of HBV RNAi agents. The efficacy of various HBV RNAi agents was tested in HepG2.2.15 cells in vitro. 10 μM was used. […] It is noted that, due to the nature of the HepG2.2.15 cell line, it is difficult to achieve greater than 50% knockdown.
Reply with the number and its unit after it.

Asked: For HBV, provide Max % KD, EXPERIMENT 2 of 8: "HBV RNAi agents numbered 1 to 10"; "The RNAi agents used are listed in Table 8E" (18-mer format) (sense CAGCAAUGUCAACGACCGA; antisense UCGGUCGUUGACAUUGCUG; chemistry not given here) [Number 8] please.
Given back: 57.8%

Asked: Also need 7: "HBV RNAi agents numbered 1 to 10"; "The RNAi agents used are listed in Table 8E" (18-mer format) (sense GCUGUAGGCAUAAAUUGGU; antisense ACCAAUUUAUGCCUACAGC; chemistry not given here) [Number 7] , thanks.
Given back: 40.3%

###

# System: HBV
# assay.explanation: Efficacy of HBV RNAi agents in HepG2.2.15 cells in vitro (sAg KD)
# Type: cell-based, Hepatitis B Virus
# experimental.parameters: HepG2.2.15 cells in vitro; Experiment 1; read-out: EC50 (nM), EXPERIMENT 1
Field: EC50. Provide a value for each of the substances that follow.
State just the number; it will be interpreted in nM.

Asked: Param item = 6: "HBV RNAi agents numbered 1 to 10"; "The RNAi agents used are listed in Table 8E" (18-mer format) (sense GGCUGUAGGCAUAAAUUGG; antisense CCAAUUUAUGCCUACAGCC; chemistry not given here) [Number 6] ; retrieve measured EC50.
Given back: 0.008

Asked: Same again, this time with 8: "HBV RNAi agents numbered 1 to 10"; "The RNAi agents used are listed in Table 8E" (18-mer format) (sense CAGCAAUGUCAACGACCGA; antisense UCGGUCGUUGACAUUGCUG; chemistry not given here) [Number 8]
Given back: 0.025

Asked: Also 10: "HBV RNAi agents numbered 1 to 10"; "The RNAi agents used are listed in Table 8E" (18-mer format) (sense GAGAUUAGGUUAAAGGUCU; antisense AGACCUUUAACCUAAUCUC; chemistry not given here) [Number 10] , if possible.
Given back: 0.066

Asked: Field entry: 5: "One sequence used was designated siHBV_1599_18mer_CAM, and corresponds to Number 5 in Table 8E" (sense CCGUGUGCACUUCGCUUCA; antisense UGAAGCGAAGUGCACACGG; chemistry not given here)
Given back: 0.127

Asked: Entry 11: "An 18-mer ... with the sequences of Number 11E in Table 10"; "an additional HBV RNAi agent, HBV 279" (sense GGUUCUUCUGGAUUAUCAA; antisense UUGAUAAUCCAGAAGAACC; chemistry not given here) please
Given back: 0.039

Asked: Repeat with 9: "HBV RNAi agents numbered 1 to 10"; "The RNAi agents used are listed in Table 8E" (18-mer format) (sense GGAGGCUGUAGGCAUAAAU; antisense AUUUAUGCCUACAGCCUCC; chemistry not given here) [Number 9]
Given back: 0.131

Asked: Please do the same for 4: "HBV RNAi agents numbered 1 to 10"; "The RNAi agents used are listed in Table 8E" (18-mer format) (sense GAGGCUGUAGGCAUAAAUU; antisense AAUUUAUGCCUACAGCCUC; chemistry not given here) [Number 4] as well.
Given back: 0.017

###

Provide the reported EC50 of each item.
# Tested on: HBV
# assay.explanation: Efficacy of HBV RNAi agents in HepG2.2.15 cells in vitro (sAg KD)
# Format: cell-based, Hepatitis B Virus
# experimental.parameters: Experiment 2; HepG2.2.15 cells; nM printed only at the Experiment 1 and AVERAGE EC50 heads; read-out: EC50, EXPERIMENT 2
Unit nM implied. Number only.

Asked: Data request, read-out EC50, for 5: "One sequence used was designated siHBV_1599_18mer_CAM, and corresponds to Number 5 in Table 8E" (sense CCGUGUGCACUUCGCUUCA; antisense UGAAGCGAAGUGCACACGG; chemistry not given here)
Given back: 0.013

Asked: What about this substance? 4: "HBV RNAi agents numbered 1 to 10"; "The RNAi agents used are listed in Table 8E" (18-mer format) (sense GAGGCUGUAGGCAUAAAUU; antisense AAUUUAUGCCUACAGCCUC; chemistry not given here) [Number 4]
Given back: 0.056

###

For each of the substances below, state its EC50.
# Test system: HBV
# assay.explanation: Efficacy of HBV RNAi agents in HepG2.2.15 cells in vitro (sAg KD)
# Type: cell-based, Hepatitis B Virus
# experimental.parameters: Experiment 2; HepG2.2.15 cells; nM printed only at the Experiment 1 and AVERAGE EC50 heads; read-out: EC50, EXPERIMENT 2
Reply with the number, then its unit.

Asked: What measured EC50 goes with 8: "HBV RNAi agents numbered 1 to 10"; "The RNAi agents used are listed in Table 8E" (18-mer format) (sense CAGCAAUGUCAACGACCGA; antisense UCGGUCGUUGACAUUGCUG; chemistry not given here) [Number 8] ?
Given back: 0.177 nM

Asked: Ok, now 11: "An 18-mer ... with the sequences of Number 11E in Table 10"; "an additional HBV RNAi agent, HBV 279" (sense GGUUCUUCUGGAUUAUCAA; antisense UUGAUAAUCCAGAAGAACC; chemistry not given here)
Given back: 0.105 nM

Asked: Same thing, different substance: 6: "HBV RNAi agents numbered 1 to 10"; "The RNAi agents used are listed in Table 8E" (18-mer format) (sense GGCUGUAGGCAUAAAUUGG; antisense CCAAUUUAUGCCUACAGCC; chemistry not given here) [Number 6]
Given back: 0.13 nM

###

# Tested on: HBV
# assay.explanation: Efficacy of HBV RNAi agents in HepG2.2.15 cells in vitro (sAg KD)
# Type: cell-based, Hepatitis B Virus
# experimental.parameters: HepG2.2.15 cells in vitro; Experiment 1; read-out: EC50 (nM), EXPERIMENT 1
# Procedure: Table 9. Efficacy of HBV RNAi agents. The efficacy of various HBV RNAi agents was tested in HepG2.2.15 cells in vitro. 10 μM was used. […] It is noted that, due to the nature of the HepG2.2.15 cell line, it is difficult to achieve greater than 50% knockdown.
Please respond with reported EC50 for every item in the list.
Give the quantity in nM, number only.

Asked: Recorded EC50 for 3: "HBV RNAi agents numbered 1 to 10"; "The RNAi agents used are listed in Table 8E" (18-mer format) (sense CCAUACUGCGGAACUCCUA; antisense UAGGAGUUCCGCAGUAUGG; chemistry not given here) [Number 3] , please?
Given back: 0.111

Asked: Queued: 7: "HBV RNAi agents numbered 1 to 10"; "The RNAi agents used are listed in Table 8E" (18-mer format) (sense GCUGUAGGCAUAAAUUGGU; antisense ACCAAUUUAUGCCUACAGC; chemistry not given here) [Number 7]
Given back: 0.038

Asked: What would you report for 12: "Twelve of the best HBV RNAi agents identified are listed below, in various formats, in Tables 8A-8E, 9 and 10" (sense GGACUUCUCUCAAUUUUCU; antisense AGAAAAUUGAGAGAAGUCC; chemistry not given here) [Number 12] ?
Given back: 0.093

###

# System: HBV
# assay.explanation: Efficacy of HBV RNAi agents in HepG2.2.15 cells in vitro (sAg KD)
# Assay type: cell-based, Hepatitis B Virus
# experimental.parameters: Experiment 2; percent residual gene activity; HepG2.2.15 cells
Would you kindly list Percent sAg remaining at maximum knockdown for each of these substances?
Express it in %; write the number only.

Asked: Endpoint output: Percent sAg remaining at maximum knockdown of 3: "HBV RNAi agents numbered 1 to 10"; "The RNAi agents used are listed in Table 8E" (18-mer format) (sense CCAUACUGCGGAACUCCUA; antisense UAGGAGUUCCGCAGUAUGG; chemistry not given here) [Number 3] . Value?
Given back: 61.3

Asked: Could you do the same for 7: "HBV RNAi agents numbered 1 to 10"; "The RNAi agents used are listed in Table 8E" (18-mer format) (sense GCUGUAGGCAUAAAUUGGU; antisense ACCAAUUUAUGCCUACAGC; chemistry not given here) [Number 7] , please?
Given back: 59.7

###

# Test system: HBV
# assay.explanation: Efficacy of HBV RNAi agents in HepG2.2.15 cells in vitro (sAg KD)
# Type: cell-based, Hepatitis B Virus
# experimental.parameters: average of Experiments 1 and 2
# Protocol: Table 9. Efficacy of HBV RNAi agents. The efficacy of various HBV RNAi agents was tested in HepG2.2.15 cells in vitro. 10 μM was used. […] It is noted that, due to the nature of the HepG2.2.15 cell line, it is difficult to achieve greater than 50% knockdown.
Each entry falls into one class according to its Max % KD, AVERAGE; the ranges are low: < 40%; moderate: ≥ 40% and < 50%; high: ≥ 50%

Asked: Sort 3: "HBV RNAi agents numbered 1 to 10"; "The RNAi agents used are listed in Table 8E" (18-mer format) (sense CCAUACUGCGGAACUCCUA; antisense UAGGAGUUCCGCAGUAUGG; chemistry not given here) [Number 3] into one of the categories.
Given back: moderate

Asked: Same for 8: "HBV RNAi agents numbered 1 to 10"; "The RNAi agents used are listed in Table 8E" (18-mer format) (sense CAGCAAUGUCAACGACCGA; antisense UCGGUCGUUGACAUUGCUG; chemistry not given here) [Number 8]
Given back: moderate

Asked: Consider next the substance 11: "An 18-mer ... with the sequences of Number 11E in Table 10"; "an additional HBV RNAi agent, HBV 279" (sense GGUUCUUCUGGAUUAUCAA; antisense UUGAUAAUCCAGAAGAACC; chemistry not given here) in the same way.
Given back: high

Asked: How about 6: "HBV RNAi agents numbered 1 to 10"; "The RNAi agents used are listed in Table 8E" (18-mer format) (sense GGCUGUAGGCAUAAAUUGG; antisense CCAAUUUAUGCCUACAGCC; chemistry not given here) [Number 6] ?
Given back: low

Asked: Try the substance 4: "HBV RNAi agents numbered 1 to 10"; "The RNAi agents used are listed in Table 8E" (18-mer format) (sense GAGGCUGUAGGCAUAAAUU; antisense AAUUUAUGCCUACAGCCUC; chemistry not given here) [Number 4]
Given back: moderate

Asked: Can you handle 12: "Twelve of the best HBV RNAi agents identified are listed below, in various formats, in Tables 8A-8E, 9 and 10" (sense GGACUUCUCUCAAUUUUCU; antisense AGAAAAUUGAGAGAAGUCC; chemistry not given here) [Number 12] next?
Given back: low

Asked: 10: "HBV RNAi agents numbered 1 to 10"; "The RNAi agents used are listed in Table 8E" (18-mer format) (sense GAGAUUAGGUUAAAGGUCU; antisense AGACCUUUAACCUAAUCUC; chemistry not given here) [Number 10] , same question.
Given back: high
